Target: Serine/threonine-protein kinase Nek2 (Homo sapiens, UniProt P51955)
Sequence (P51955 whole entry): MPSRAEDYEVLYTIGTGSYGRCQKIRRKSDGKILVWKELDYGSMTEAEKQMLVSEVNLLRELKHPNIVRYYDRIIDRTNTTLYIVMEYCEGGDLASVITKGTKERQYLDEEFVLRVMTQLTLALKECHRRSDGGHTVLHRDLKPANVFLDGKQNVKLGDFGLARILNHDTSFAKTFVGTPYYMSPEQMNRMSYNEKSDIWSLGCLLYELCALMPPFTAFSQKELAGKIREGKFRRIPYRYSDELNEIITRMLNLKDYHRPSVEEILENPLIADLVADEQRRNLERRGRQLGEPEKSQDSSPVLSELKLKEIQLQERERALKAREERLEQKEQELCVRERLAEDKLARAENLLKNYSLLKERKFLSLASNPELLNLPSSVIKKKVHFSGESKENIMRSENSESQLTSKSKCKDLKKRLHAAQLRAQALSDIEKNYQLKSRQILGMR
Some compounds, each annotated with its measured pIC50.
pIC50 here is simply -log10 of the concentration when that concentration is written in mol/L.

Example compounds with recorded pIC50:
>>> meas_value("COc1cc(-c2cnc(N)c(N3CC[C@@H](C(=O)O)[C@@H](C)C3)n2)cc(OC)c1OC (racemic)")
6.14
>>> meas_value("CCC[C@H]1CN(c2nc(-c3cc(OC)c(OC)c(OC)c3)cnc2N)CC[C@H]1C(=O)O (racemic)")
4.95

Observed pIC50 on Serine/threonine-protein kinase Nek2 (Homo sapiens, UniProt P51955), entry COc1cc(-c2cnc(N)c(N3CC[C@@H](C(=O)O)C[C@H]3C)n2)cc(OC)c1OC (racemic) , equals 5.92

`COc1ccc(-c2cnc(N)c(N3CCC(C(=O)O)CC3)n2)cc1OC` tested on Serine/threonine-protein kinase Nek2 (Homo sapiens, UniProt P51955) gave pIC50: 5.72

Observed pIC50 on Serine/threonine-protein kinase Nek2 (Homo sapiens, UniProt P51955), entry `Nc1nccnc1N1CCC(C(=O)O)CC1` , equals 4.31

Note to self: pIC50 of `Nc1ncc(-c2sccc2C2CC2)nc1N1CCC(C(=O)O)CC1` with Serine/threonine-protein kinase Nek2 (Homo sapiens, UniProt P51955) was 5.80

The reported Serine/threonine-protein kinase Nek2 (Homo sapiens, UniProt P51955) pIC50 of CCC[C@@H]1C[C@H](C(=O)O)CCN1c1nc(-c2cc(OC)c(OC)c(OC)c2)cnc1N (racemic) is 5.27

The compound CC[C@@H]1C[C@H](C(=O)O)CCN1c1nc(-c2cc(OC)c(OC)c(OC)c2)cnc1N (racemic) on Serine/threonine-protein kinase Nek2 (Homo sapiens, UniProt P51955): pIC50 was 5.85

The measured pIC50 that COc1cc(-c2cnc(N)c(N3CC[C@H](C(=O)O)[C@@H](C)C3)n2)cc(OC)c1OC (racemic) showed for Serine/threonine-protein kinase Nek2 (Homo sapiens, UniProt P51955) is 5.57

Lab note: compound `COc1cc(-c2cnc(N)c(N3CCC(C(N)=O)CC3)n2)cc(OC)c1OC` tested on Serine/threonine-protein kinase Nek2 (Homo sapiens, UniProt P51955); recorded pIC50 was 5.24

Observed pIC50, Serine/threonine-protein kinase Nek2 (Homo sapiens, UniProt P51955), `Nc1ncc(-c2ccccc2)nc1N1CCC(C(=O)O)CC1` : 5.11

Given the compound `Nc1ncc(-c2sccc2C2CCCC2)nc1N1CCC(C(=O)O)CC1` and test system Serine/threonine-protein kinase Nek2 (Homo sapiens, UniProt P51955), the measured pIC50 is 5.47

I looked up `CCc1ccsc1-c1cnc(N)c(N2CCC(C(=O)O)CC2)n1` and its pIC50 for Serine/threonine-protein kinase Nek2 (Homo sapiens, UniProt P51955) was 5.68

Summary: COc1cc(-c2cnc(N)c(N3CC[C@@H](C(=O)O)[C@@H](C4CC4)C3)n2)cc(OC)c1OC (racemic) , Serine/threonine-protein kinase Nek2 (Homo sapiens, UniProt P51955), pIC50 = 4.42

Note to self: pIC50 of COc1cc(-c2cnc(N)c(N3CC[C@@H](C(=O)O)C[C@H]3C(C)C)n2)cc(OC)c1OC (racemic) with Serine/threonine-protein kinase Nek2 (Homo sapiens, UniProt P51955) was 5.23
